Could you please report measured GI50 for the items listed next?
- System: ACHN
- Test Description: NCI tumour cell line growth inhibition, 48 h
The source made the active and inactive calls. Cut-off read from the data, not from the text of the source: active = GI50 up to about 1.1 µM and inactive = higher.

Some entries whose results are on file:
Entry CCC(C)[C@H](NC(=O)[C@H](Cc1ccccc1)NC(=O)N(CC)c1ccccc1)C(=O)N[C@@H](CC(C)C)C(=O)OC (some centres undefined) has what GI50?
25.6 µM (inactive)

Consider the molecule shown here: Cc1ccc(SC2C(C)(C)N(C(C)C)P2(=O)N(C(C)C)C(C)C)cc1 (centres undefined) What is its recorded GI50?
15.8 µM (inactive)

Data request, read-out GI50, for COc1ncc(C=C(C#N)C#N)c(OC)n1
48.5 µM (inactive)

Which GI50 is listed for COc1ccc(-c2cc(-c3ccccc3)c(C#N)c(=O)n2C2OC(CO)C(O)C(O)C2O)cc1 (centres undefined) ?
> 100 µM (inactive)

Would you kindly share the measured GI50 for N#CC1(c2ccccc2)CCN(C2(c3ccccc3)CCCCC2)CC1 ?
> 100 µM (inactive)

Please report the recorded GI50 for COC(=O)CC(c1ccccc1)C(C#N)(OP1(=O)OC(c2ccccc2)C(C)N1C)c1ccccc1 (centres undefined) .
39.4 µM (inactive)

For every listed record, write down its GI50.
1. COC1C(O)C(C)OC(O[C@H]2CC[C@@]3(C)C(CC[C@@H]4[C@@H]3CC[C@]3(C)[C@@H](C(C)OC5OC(CO)C(O)C(O)C5O)CC[C@]43O)C2)C1O (some centres undefined)
2. O=C1c2c(Br)sc(Br)c2C(NC(=O)C(F)(F)F)C1O (centres undefined)
3. O=C1Nc2ccccc2C1Cc1ccccc1 (centres undefined)

["> 25 µM (inactive)", "29.5 µM (inactive)", "> 100 µM (inactive)"]
